# reported kon; entries follow
- ASSAY SYSTEM: T1, human PD-L1-Fc (R&D Systems) chimeric protein (human, UniProt Q9NZQ7 19-239)
- T1 construct: Bought reagent; also called rhPD-L1-Fc; huPD-L1; Fc part of the bought chimera not given, not described
- T1 sequence (Q9NZQ7 19-239, change not shown): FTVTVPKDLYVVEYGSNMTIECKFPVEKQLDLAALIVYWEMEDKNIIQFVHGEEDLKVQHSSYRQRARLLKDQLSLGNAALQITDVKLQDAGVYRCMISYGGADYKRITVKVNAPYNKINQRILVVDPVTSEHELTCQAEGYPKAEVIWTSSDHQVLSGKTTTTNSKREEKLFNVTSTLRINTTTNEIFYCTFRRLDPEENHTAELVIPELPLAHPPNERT
- MEASUREMENT NOTES: SPR (Biacore T200), PD-L1-Fc amine-coupled to CM5, Affimer analyte
READOUT TYPE: kon

[[record]]
binder = "AVA04-269 XT12 (designed binder) MIPRGLSEAKPATPEIQEIVDKVKPQLEEKTNETYGKLEAVQYKTQVLAKEYGPEEWWSTNYYIKVRAGDNKYMHLKVFNGPGDYEQVLIHADRVLTGYQVDKNKDDELTGFAEAAAKEAAAKEAAAKEAAAKEAAAKEAAAKMIPRGLSEAKPATPEIQEIVDKVKPQLEEKTNETYGKLEAVQYKTQVLANFFQRRWPGSTNYYIKVRAGDNKYMHLKVFNGPWKFRNTDRGADRVLTGYQVDKNKDDELTGFHHHHHH"
value_reported = "1.14e+06 M⁻¹ s⁻¹"

[[record]]
binder = "AVA04-261 XT9 (designed binder) MIPRGLSEAKPATPEIQEIVDKVKPQLEEKTNETYGKLEAVQYKTQVLAHAYGPRDWDSTNYYIKVRAGDNKYMHLKVFNGPPADHVLEEAADRVLTGYQVDKNKDDELTGFGGGGSGGGGSGGGGSGGGGSGGGGSGGGGSMIPRGLSEAKPATPEIQEIVDKVKPQLEEKTNETYGKLEAVQYKTQVLANFFQRRWPGSTNYYIKVRAGDNKYMHLKVFNGPWKFRNTDRGADRVLTGYQVDKNKDDELTGFHHHHHH"
value_reported = "395000 M⁻¹ s⁻¹"

[[record]]
binder = "AVA04-261 (designed binder) MIPRGLSEAKPATPEIQEIVDKVKPQLEEKTNETYGKLEAVQYKTQVLAHAYGPRDWDSTNYYIKVRAGDNKYMHLKVFNGPPADHVLEEAADRVLTGYQVDKNKDDELTGF"
value_reported = "3.68e+06 M⁻¹ s⁻¹"

